Where do these numbers come from? They come from patent US8299023B2.

biological target: Y1R (Homo sapiens); assay: Ca flux assay (FLIPR), Y1R
Measured EC50, listed per entry for reference.

compound	target under test	EC50
CC[C@H](C)[C@H](NC(C)=O)C(=O)N[C@@H](CCCCN)C(=O)N1CCN(c2ccc3c(ccn3CC(=O)N[C@@H](CCCNC(=N)N)C(=O)N[C@@H](Cc3c[nH]cn3)C(=O)N[C@@H](Cc3ccc(O)cc3)C(=O)N[C@@H](CC(C)C)C(=O)N[C@@H](CC(N)=O)C(=O)N[C@@H](Cc3c[nH]c4ccccc34)C(=O)N[C@H](C(=O)N[C@H](C(=O)N[C@@H](CCCNC(=N)N)C(=O)N[C@@H](CCC(N)=O)C(=O)N(C)[C@@H](CCCNC(=N)N)C(=O)N[C@@H](Cc3ccc(O)cc3)C(N)=O)[C@@H](C)O)C(C)C)c2)CC1 [Example 6]	Y1R (Homo sapiens)	> 30 µM

Next compound, please.
Reported EC50 ( CC[C@H](C)[C@H](NC(C)=O)C(=O)N[C@@H](CCCCN)C(=O)N1CCN(c2ncc3c(ncn3CC(=O)N[C@@H](CCCNC(=N)N)C(=O)N[C@@H](Cc3c[nH]cn3)C(=O)N[C@@H](Cc3ccc(O)cc3)C(=O)N[C@@H](CC(C)C)C(=O)N[C@@H](CC(N)=O)C(=O)N[C@@H](Cc3c[nH]c4ccccc34)C(=O)N[C@H](C(=O)N[C@H](C(=O)N[C@@H](CCCNC(=N)N)C(=O)N[C@@H](CCC(N)=O)C(=O)N(C)[C@@H](CCCNC(=N)N)C(=O)N[C@@H](Cc3ccc(O)cc3)C(N)=O)[C@@H](C)O)C(C)C)n2)CC1 [Example 10] ) = > 5 µM

* * *

Target: Y5R (Homo sapiens)
Sequence (Q15761 1-445): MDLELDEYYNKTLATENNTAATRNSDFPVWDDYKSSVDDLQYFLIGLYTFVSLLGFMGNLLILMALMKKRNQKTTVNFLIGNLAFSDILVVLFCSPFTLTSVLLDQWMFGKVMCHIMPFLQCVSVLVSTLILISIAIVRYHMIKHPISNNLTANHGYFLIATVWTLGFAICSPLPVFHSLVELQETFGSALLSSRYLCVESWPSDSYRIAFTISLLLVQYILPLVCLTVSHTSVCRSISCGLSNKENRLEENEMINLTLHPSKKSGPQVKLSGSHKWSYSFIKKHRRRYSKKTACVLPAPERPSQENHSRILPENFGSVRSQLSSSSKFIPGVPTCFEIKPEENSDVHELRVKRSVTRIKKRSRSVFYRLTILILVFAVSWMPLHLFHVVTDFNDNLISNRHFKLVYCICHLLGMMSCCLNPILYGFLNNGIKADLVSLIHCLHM
Assay: Ca flux assay (FLIPR), Y5R
pEC50: −log10 of the molar value.
parameter measured: pEC50

Reported pEC50 ( CC[C@H](C)[C@H](NC(C)=O)C(=O)N[C@@H](CCCCN)C(=O)NCc1ccc(-c2cccc(CC(=O)N[C@@H](CCCNC(=N)N)C(=O)N[C@@H](Cc3c[nH]cn3)C(=O)N[C@@H](Cc3ccc(O)cc3)C(=O)N[C@@H](CC(C)C)C(=O)N[C@@H](CC(N)=O)C(=O)N[C@@H](Cc3c[nH]c4ccccc34)C(=O)N[C@H](C(=O)N[C@H](C(=O)N[C@@H](CCCNC(=N)N)C(=O)N[C@@H](CCC(N)=O)C(=O)N(C)[C@@H](CCCNC(=N)N)C(=O)N[C@@H](Cc3ccc(O)cc3)C(N)=O)[C@@H](C)O)C(C)C)c2)cc1 [Example 5] ) = < 4.52

* * *

target: Y5R (Homo sapiens); experiment: Ca flux assay (FLIPR), Y5R; assay type: cell-based; details: read-out: Y5R FLIPR, percentage in brackets beside the EC50
parameter measured: Emax
Respond with the figure and its unit, in that order.

Entry CC[C@H](C)[C@H](NC(C)=O)C(=O)N[C@@H](CCCCN)C(=O)N1CCN(c2nc(N)c3c(ncn3CC(=O)N[C@@H](CCCNC(=N)N)C(=O)N[C@@H](Cc3c[nH]cn3)C(=O)N[C@@H](Cc3ccc(O)cc3)C(=O)N[C@@H](CC(C)C)C(=O)N[C@@H](CC(N)=O)C(=O)N[C@@H](Cc3c[nH]c4ccccc34)C(=O)N[C@H](C(=O)N[C@H](C(=O)N[C@@H](CCCNC(=N)N)C(=O)N[C@@H](CCC(N)=O)C(=O)N(C)[C@@H](CCCNC(=N)N)C(=O)N[C@@H](Cc3ccc(O)cc3)C(N)=O)[C@@H](C)O)C(C)C)n2)CC1 [Example 11] — recorded Emax = 39%

* * *

Biological target: Y1R (Homo sapiens, UniProt P25929)
Sequence (P25929 1-384): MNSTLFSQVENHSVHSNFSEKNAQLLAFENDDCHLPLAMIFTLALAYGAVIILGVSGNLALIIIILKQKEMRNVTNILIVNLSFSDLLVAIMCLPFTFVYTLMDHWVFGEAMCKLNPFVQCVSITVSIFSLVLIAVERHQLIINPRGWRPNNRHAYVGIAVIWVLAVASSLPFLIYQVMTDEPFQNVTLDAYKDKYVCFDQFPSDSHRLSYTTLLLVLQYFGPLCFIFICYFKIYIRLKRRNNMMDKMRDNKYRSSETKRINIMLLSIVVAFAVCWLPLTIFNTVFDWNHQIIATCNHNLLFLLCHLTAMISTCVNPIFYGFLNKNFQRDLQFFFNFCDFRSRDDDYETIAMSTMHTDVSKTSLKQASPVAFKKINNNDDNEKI
Assay: Ca flux assay (FLIPR), Y1R
pEC50: −log10 of the molar value.
parameter measured: pEC50

compound	pEC50
CC[C@H](C)[C@H](NC(C)=O)C(=O)N[C@@H](CCCCN)C(=O)N1CCCN(c2ccc3ncn(CC(=O)N[C@@H](CCCNC(=N)N)C(=O)N[C@@H](Cc4c[nH]cn4)C(=O)N[C@@H](Cc4ccc(O)cc4)C(=O)N[C@@H](CC(C)C)C(=O)N[C@@H](CC(N)=O)C(=O)N[C@@H](Cc4c[nH]c5ccccc45)C(=O)N[C@H](C(=O)N[C@H](C(=O)N[C@@H](CCCNC(=N)N)C(=O)N[C@@H](CCC(N)=O)C(=O)N(C)[C@@H](CCCNC(=N)N)C(=O)N[C@@H](Cc4ccc(O)cc4)C(N)=O)[C@@H](C)O)C(C)C)c(=O)c3c2)CC1	< 5.05

Now for the compound whose pEC50 we want.
# pEC50 of CC[C@H](C)[C@H](NC(C)=O)C(=O)N[C@@H](CCCCN)C(=O)N1CC2CC1CC2c1ccc2ncn(CC(=O)N[C@@H](CCCNC(=N)N)C(=O)N[C@@H](Cc3c[nH]cn3)C(=O)N[C@@H](Cc3ccc(O)cc3)C(=O)N[C@@H](CC(C)C)C(=O)N[C@@H](CC(N)=O)C(=O)N[C@@H](Cc3c[nH]c4ccccc34)C(=O)N[C@H](C(=O)N[C@H](C(=O)N[C@@H](CCCNC(=N)N)C(=O)N[C@@H](CCC(N)=O)C(=O)N(C)[C@@H](CCCNC(=N)N)C(=O)N[C@@H](Cc3ccc(O)cc3)C(N)=O)[C@@H](C)O)C(C)C)c(=O)c2c1 (some centres unmarked) = < 5.30

* * *

target: UniProt Q15761; assay: Ca flux assay (FLIPR), Y5R; type: cell-based; conditions: read-out: Y5R FLIPR, percentage in brackets beside the EC50
parameter measured: Emax (%)
Quick note: give the figure in %, leave out the unit.

molecule	unit abbreviation	Emax
CC[C@H](C)[C@H](NC(C)=O)C(=O)N[C@@H](CCCCN)C(=O)N1CCN(c2ncc3c(ncn3CC(=O)N[C@@H](CCCNC(=N)N)C(=O)N[C@@H](Cc3c[nH]cn3)C(=O)N[C@@H](Cc3ccc(O)cc3)C(=O)N[C@@H](CC(C)C)C(=O)N[C@@H](CC(N)=O)C(=O)N[C@@H](Cc3c[nH]c4ccccc34)C(=O)N[C@H](C(=O)N[C@H](C(=O)N[C@@H](CCCNC(=N)N)C(=O)N[C@@H](CCC(N)=O)C(=O)N(C)[C@@H](CCCNC(=N)N)C(=O)N[C@@H](Cc3ccc(O)cc3)C(N)=O)[C@@H](C)O)C(C)C)n2)CC1	%	48
CC[C@H](C)[C@H](NC(C)=O)C(=O)N[C@@H](CCCCN)C(=O)N1CC2CC1CC2c1ccc2ncn(CC(=O)N[C@@H](CCCNC(=N)N)C(=O)N[C@@H](Cc3c[nH]cn3)C(=O)N[C@@H](Cc3ccc(O)cc3)C(=O)N[C@@H](CC(C)C)C(=O)N[C@@H](CC(N)=O)C(=O)N[C@@H](Cc3c[nH]c4ccccc34)C(=O)N[C@H](C(=O)N[C@H](C(=O)N[C@@H](CCCNC(=N)N)C(=O)N[C@@H](CCC(N)=O)C(=O)N(C)[C@@H](CCCNC(=N)N)C(=O)N[C@@H](Cc3ccc(O)cc3)C(N)=O)[C@@H](C)O)C(C)C)c(=O)c2c1 (stereo partly drawn)	%	43

For `CC[C@H](C)[C@H](NC(C)=O)C(=O)N[C@@H](CCCCN)C(=O)N1CCN(c2ccc3ccn(CC(=O)N[C@@H](CCCNC(=N)N)C(=O)N[C@@H](Cc4c[nH]cn4)C(=O)N[C@@H](Cc4ccc(O)cc4)C(=O)N[C@@H](CC(C)C)C(=O)N[C@@H](CC(N)=O)C(=O)N[C@@H](Cc4c[nH]c5ccccc45)C(=O)N[C@H](C(=O)N[C@H](C(=O)N[C@@H](CCCNC(=N)N)C(=O)N[C@@H](CCC(N)=O)C(=O)N(C)[C@@H](CCCNC(=N)N)C(=O)N[C@@H](Cc4ccc(O)cc4)C(N)=O)[C@@H](C)O)C(C)C)c(=O)c3c2)CC1` on UniProt Q15761, measured Emax was 49
